tested on: Saccharomyces cerevisiae; test: protein stability index of tFT-peptide fusion (C-terminal peptide) (PSI (0-1 scale)); higher = more stable (slower turnover); settings: genetic background: wild type; temperature: 30 C
Criterion: protein stability index meeting or surpassing 0.7. Met: true (1). Not met: false (0).

{"Chain": "PSLARWLTLGYM", "Class": "false (0)"}
{"Chain": "IGNKLSKMIDTS", "Class": "false (0)"}
{"Chain": "HIGVVSIERLTS", "Class": "false (0)"}
{"Chain": "PPPPFPLPSPSL", "Class": "false (0)"}
{"Chain": "MLYNQDIGQELL", "Class": "false (0)"}
{"Chain": "SSFFFLFCFFPS", "Class": "false (0)"}

Req: // inclusive: protein stability index at least 0.7? input: LCIYNFGWWFCV
Resp: false (0)

Req: // inclusive: protein stability index at least 0.7? input: FLGRFLTGALWV
Resp: true (1)

Req: // inclusive: protein stability index at least 0.7? input: VSKYNGIKRRNG
Resp: false (0)

Req: // inclusive: protein stability index at least 0.7? input: LIHCVSTFRCGE
Resp: false (0)

---

The entries below are paired with their reported protein stability index.
system: Saccharomyces cerevisiae; assay: protein stability index of tFT-peptide fusion (C-terminal peptide) (PSI (0-1 scale)); higher = more stable (slower turnover); conditions: genetic background: wild type; temperature: 30 C
Answer as a number with no unit attached.

{"Chain": "PLLVLSLRLSPP", "Observed Value": 0.664}
{"Chain": "ENVGRASDHSLS", "Observed Value": 0.679}
{"Chain": "PPSPLYAFPYPL", "Observed Value": 0.757}
{"Chain": "LPRPSALLLRSL", "Observed Value": 0.5}
{"Chain": "CLPHYSQVLLNW", "Observed Value": 0.715}
{"Chain": "LICVSTLAPSGQ", "Observed Value": 0.676}
{"Chain": "RVPLFPIKMGLG", "Observed Value": 0.591}
{"Chain": "ANRSPLFCVTFG", "Observed Value": 0.695}

Req: Please indicate protein stability index recorded for RMLHYCTYSLLL
Resp: 0.71

Req: Please indicate protein stability index recorded for PLAALPLALSLP
Resp: 0.658

Req: Please indicate protein stability index recorded for PAPPRYPLSSSS
Resp: 0.633

Req: Please indicate protein stability index recorded for KRNIKKKKTNLR
Resp: 0.675

Req: Please indicate protein stability index recorded for FFSLMFVFLTVF
Resp: 0.278

---

system: Saccharomyces cerevisiae; assay: protein stability index of tFT-peptide fusion (C-terminal peptide) (PSI (0-1 scale)); higher = more stable (slower turnover); settings: genetic background: wild type; temperature: 30 C
Endpoint: protein stability index
Answer as a number with no unit attached.

{"Chain": "ITLRLWEQRQAK [MAD1 C-terminal 12 aa]", "System": "Saccharomyces cerevisiae", "Observed Value": 0.726}
{"Chain": "DLLDMIDSLGKL [FSH3 C-terminal 12 aa]", "System": "Saccharomyces cerevisiae", "Observed Value": 0.694}
{"Chain": "TFCVYENLKHRL [FLX1 C-terminal 12 aa]", "System": "Saccharomyces cerevisiae", "Observed Value": 0.726}
{"Chain": "DQAKDASPNAKK [RGM1 C-terminal 12 aa]", "System": "Saccharomyces cerevisiae", "Observed Value": 0.673}
{"Chain": "GAGIMALIGKWA [ZRT1 C-terminal 12 aa]", "System": "Saccharomyces cerevisiae", "Observed Value": 0.661}

Req: Please indicate protein stability index recorded for LKAVCPPEAGFD [VEL1 C-terminal 12 aa]
Resp: 0.772

Req: Please indicate protein stability index recorded for LVAEATKKKRHT [DJP1 C-terminal 12 aa]
Resp: 0.694

Req: Please indicate protein stability index recorded for KIEHVDDETRTH [PEX13 C-terminal 12 aa]
Resp: 0.699

Req: Please indicate protein stability index recorded for KSLRSSFGKKLI [PHS1 C-terminal 12 aa]
Resp: 0.717

---

The entries below are paired with their reported protein stability index.
test system: Saccharomyces cerevisiae; test: protein stability index of tFT-peptide fusion (C-terminal peptide) (PSI (0-1 scale)); higher = more stable (slower turnover); conditions: genetic background: wild type; temperature: 30 C
Answer as a number with no unit attached.

Below, each entry is followed by its recorded protein stability index result.
{"Chain": "APFPMVSSLSFL", "Observed Value": 0.761}
{"Chain": "TVGSLNSEIAGK", "Observed Value": 0.691}
{"Chain": "ISLTFNSNSKPM", "Observed Value": 0.687}
{"Chain": "SHIPRNLSPFSS", "Observed Value": 0.754}
{"Chain": "PLSLSPLPSPPL", "Observed Value": 0.704}

Req: Please indicate protein stability index recorded for LVSPSSPLLPPP
Resp: 0.685

---

system: Saccharomyces cerevisiae; test: protein stability index of tFT-peptide fusion (C-terminal peptide) (PSI (0-1 scale)); higher = more stable (slower turnover); conditions: genetic background: wild type; temperature: 30 C
The entries below are paired with their reported protein stability index.
Answer as a number with no unit attached.

Below, each entry is followed by its recorded protein stability index result.
{"Chain": "RWRLWGGWWVVG", "Endpoint": "protein stability index", "Observed Value": 0.196}
{"Chain": "GRLDHWNKHKYI", "Endpoint": "protein stability index", "Observed Value": 0.0786}

Let's switch to this sequence now.
Req: Please indicate protein stability index recorded for RYTWHGICIVTR
Resp: 0.313

---

test system: Saccharomyces cerevisiae; test: protein stability index of tFT-peptide fusion (C-terminal peptide) (PSI (0-1 scale)); higher = more stable (slower turnover); details: genetic background: cdc53-1; temperature: 37 C
The entries below are paired with their reported protein stability index.
Answer as a number with no unit attached.

{"Chain": "LYLGCVLFVLFR", "protein stability index": 0.151}

Req: Please indicate protein stability index recorded for YQKIARVSLAVS
Resp: 0.512

Req: Please indicate protein stability index recorded for CFFFCSLFLSFL
Resp: 0.452

Req: Please indicate protein stability index recorded for VQVLVAIMDGRM
Resp: 0.414

Req: Please indicate protein stability index recorded for LACGIDGYYWRH
Resp: 0.745

Req: Please indicate protein stability index recorded for GLVVWWLSGWLW
Resp: 0.435

Req: Please indicate protein stability index recorded for MIILGFILYFFW
Resp: 0.533

Req: Please indicate protein stability index recorded for RDTTQRRRKTAA
Resp: 0.662

Req: Please indicate protein stability index recorded for RFLFYSFPIHTL
Resp: 0.616

Req: Please indicate protein stability index recorded for IFHWLYLLIALI
Resp: 0.497

Req: Please indicate protein stability index recorded for GAVRGWGWVSFV
Resp: 0.789

Req: Please indicate protein stability index recorded for LLLVPLLAFSAS
Resp: 0.63

Req: Please indicate protein stability index recorded for LFTSGNSLVLVH
Resp: 0.257

---

system: Saccharomyces cerevisiae; assay: protein stability index of tFT-peptide fusion in wild type (PSI (0-1 scale)); higher = more stable (slower turnover); conditions: genetic background: wild type
Criterion: protein stability index meeting or surpassing 0.3. Met: fulfilled. Not met: not fulfilled.

{"Chain": "RVCRLDAIYFRI", "Class": "fulfilled"}
{"Chain": "KKHAKGQKQKIN", "Class": "not fulfilled"}
{"Chain": "MLIQPLPVQFLN", "Class": "not fulfilled"}

Req: // inclusive: protein stability index at least 0.3? input: YVVYLSCVACIN
Resp: not fulfilled

Req: // inclusive: protein stability index at least 0.3? input: CLVSLPILPFFR
Resp: not fulfilled

Req: // inclusive: protein stability index at least 0.3? input: CTSCGYKWRTNN
Resp: not fulfilled

Req: // inclusive: protein stability index at least 0.3? input: GLYMCSNGCWFR
Resp: fulfilled

Req: // inclusive: protein stability index at least 0.3? input: SDKRNHLIKLLN
Resp: not fulfilled

Req: // inclusive: protein stability index at least 0.3? input: GLYMCSVGCSFR
Resp: fulfilled

Req: // inclusive: protein stability index at least 0.3? input: AITLPMCPLLER
Resp: fulfilled

Req: // inclusive: protein stability index at least 0.3? input: PDKRNQLIKLLN
Resp: not fulfilled

Req: // inclusive: protein stability index at least 0.3? input: QSLRVLLPLYFR
Resp: not fulfilled

Req: // inclusive: protein stability index at least 0.3? input: LKILRQKDNHQN
Resp: fulfilled

Req: // inclusive: protein stability index at least 0.3? input: FSMRWTFRYWVY
Resp: not fulfilled

---

test system: Saccharomyces cerevisiae; experiment: protein stability index of tFT-peptide fusion (C-terminal peptide) (PSI (0-1 scale)); higher = more stable (slower turnover); settings: genetic background: wild type; temperature: 30 C
Criterion: protein stability index meeting or surpassing 0.7. Met: 1 (yes). Not met: 0 (no).

{"Chain": "GVGGENRRNGTV", "Class": "1 (yes)"}
{"Chain": "GFYAMWNSIFWF", "Class": "1 (yes)"}
{"Chain": "RCRNVGAVATPR", "Class": "0 (no)"}
{"Chain": "WGVCVIDSWQEG", "Class": "0 (no)"}
{"Chain": "RVWEGGGGGDGC", "Class": "0 (no)"}
{"Chain": "AGAGGGSLGPAG", "Class": "0 (no)"}

Req: // inclusive: protein stability index at least 0.7? input: LGNPVLRFILEK
Resp: 0 (no)

Req: // inclusive: protein stability index at least 0.7? input: KKEKKIRKKTVT
Resp: 1 (yes)

Req: // inclusive: protein stability index at least 0.7? input: SVSPLSSSTLTA
Resp: 0 (no)

Req: // inclusive: protein stability index at least 0.7? input: WSLGRRKLLHRI
Resp: 0 (no)

Req: // inclusive: protein stability index at least 0.7? input: PGLPFAPLPPPL
Resp: 1 (yes)
